Hey, just so you know, these numbers are from ChEMBL document CHEMBL3885861.

Species on record: Rattus norvegicus
assaySummary: Open TG-GATES - Regimen: Single
Format: toxicity, organism-based, Sprague-Dawley
Parameters: regimen Single, gender Male, age 6 weeks
experimentalConditions: in vivo, po, 0 mg/kg, 24 h, route gavage, dose level Control
Measured TERMINAL_BW of individual entries
observationType: TERMINAL_BW (g)

>>> reportedresult("C[C@H](CS)C(=O)N1CCC[C@H]1C(=O)O")
235.3
>>> reportedresult("Cn1c(=O)c2[nH]cnc2n(C)c1=O.O")
228.3
>>> reportedresult("O=C(O)c1cc(/N=N/c2ccc(S(=O)(=O)Nc3ccccn3)cc2)ccc1O")
224.5
>>> reportedresult("CSc1ccc2c(c1)N(CCC1CCCCN1C)c1ccccc1S2 (stereo not drawn)")
232.2
>>> reportedresult("NC(=O)N1c2ccccc2C=Cc2ccccc21 [CARBAMAZEPINE]")
225.7
>>> reportedresult("CCc1cc(C(N)=S)ccn1 [ETHIONAMIDE]")
237.2
>>> reportedresult("Clc1ccccc1CN1CCc2sccc2C1")
221.4
>>> reportedresult("NC(=O)N/N=C/c1ccc([N+](=O)[O-])o1")
194.2
>>> reportedresult("COc1ccc(Cc2nccc3cc(OC)c(OC)cc23)cc1OC")
237.4
>>> reportedresult("O=C(O)c1cn(C2CC2)c2cc(N3CCNCC3)c(F)cc2c1=O")
194.5
>>> reportedresult("CN(C)CCC=C1c2ccccc2CCc2ccccc21")
208.1
>>> reportedresult("CC(=O)Oc1ccccc1C(=O)O")
234.6
>>> reportedresult("COc1cc2c(c3oc(=O)c4c(c13)CCC4=O)[C@@H]1C=CO[C@@H]1O2")
227.2

---

Species on record: Rattus norvegicus
assaySummary: Open TG-GATES - Regimen: Single
Format: toxicity, organism-based, Sprague-Dawley
Design: regimen Single, gender Male, age 6 weeks
experimentalConditions: in vivo, po, 300 mg/kg, 24 h, tissue Blood, route gavage, dose level Middle
observationType: Plat (x10_4/uL)

>>> reportedresult("O=C(O)c1cc(/N=N/c2ccc(S(=O)(=O)Nc3ccccn3)cc2)ccc1O [SULFASALAZINE]")
122
>>> reportedresult("C[C@H](CS)C(=O)N1CCC[C@H]1C(=O)O [CAPTOPRIL]")
118.6
>>> reportedresult("O=C(O)c1cn(C2CC2)c2cc(N3CCNCC3)c(F)cc2c1=O [CIPROFLOXACIN]")
106.2
>>> reportedresult("Clc1ccccc1CN1CCc2sccc2C1 [TICLOPIDINE]")
128.1
>>> reportedresult("CCc1cc(C(N)=S)ccn1 [ETHIONAMIDE]")
112.3

---

Species on record: Rattus norvegicus
assaySummary: Open TG-GATES - Regimen: Daily Repeat
Format: toxicity, organism-based, Sprague-Dawley
Design: regimen Daily Repeat, gender Male, age 6 weeks
experimentalConditions: in vivo, po, 0 mg/kg, […], tissue Plasma, route gavage, dose level Control, time 14 day
Below: a set of entries, each annotated with reported BUN.
observationType: BUN (mg/dL)

>>> reportedresult("COc1ccc2c(c1)c(CC(=O)O)c(C)n2C(=O)c1ccc(Cl)cc1 [INDOMETHACIN]")
19.8
>>> reportedresult("CSc1ccc2c(c1)N(CCC1CCCCN1C)c1ccccc1S2 (stereo not given) [THIORIDAZINE]")
19
>>> reportedresult("COc1ccc(Cc2nccc3cc(OC)c(OC)cc23)cc1OC [PAPAVERINE]")
17.6
>>> reportedresult("Cn1c(=O)c2[nH]cnc2n(C)c1=O.O [THEOPHYLLINE]")
18.6
>>> reportedresult("C[C@H](CS)C(=O)N1CCC[C@H]1C(=O)O [CAPTOPRIL]")
17.8
>>> reportedresult("O=C(O)c1cn(C2CC2)c2cc(N3CCNCC3)c(F)cc2c1=O [CIPROFLOXACIN]")
18.8
>>> reportedresult("CN(C)CCC=C1c2ccccc2CCc2ccccc21 [AMITRIPTYLINE]")
17.6
>>> reportedresult("CCc1cc(C(N)=S)ccn1 [ETHIONAMIDE]")
19.8
>>> reportedresult("O=C(O)c1cc(/N=N/c2ccc(S(=O)(=O)Nc3ccccn3)cc2)ccc1O [SULFASALAZINE]")
18.6
>>> reportedresult("Clc1ccccc1CN1CCc2sccc2C1 [TICLOPIDINE]")
17.2
>>> reportedresult("NC(=O)N1c2ccccc2C=Cc2ccccc21 [CARBAMAZEPINE]")
16.7
>>> reportedresult("NC(=O)N/N=C/c1ccc([N+](=O)[O-])o1 [NITROFURAZONE]")
17.4
>>> reportedresult("CO[C@H]1/C=C/O[C@@]2(C)Oc3c(C)c(O)c4c(O)c(c(/C=N/N5CCN(C)CC5)c(O)c4c3C2=O)NC(=O)/C(C)=C\\C=C\\[C@H](C)[C@H](O)[C@@H](C)[C@@H](O)[C@@H](C)[C@H](OC(C)=O)[C@@H]1C [RIFAMPIN]")
18.2
>>> reportedresult("CCCC(CCC)C(=O)O [VALPROIC ACID]")
19
>>> reportedresult("CC(=O)Oc1ccccc1C(=O)O [ASPIRIN]")
17.8

---

Consider the following compounds and their measured Ret readings.
Species on record: Rattus norvegicus
assaySummary: Open TG-GATES - Regimen: Single
Format: toxicity, organism-based, Sprague-Dawley
Design: regimen Single, gender Male, age 6 weeks
experimentalConditions: in vivo, po, 0 mg/kg, 3 h, tissue Blood, route gavage, dose level Control
observationType: Ret (%)

>>> reportedresult("O=C(O)c1cc(/N=N/c2ccc(S(=O)(=O)Nc3ccccn3)cc2)ccc1O")
7.5
>>> reportedresult("C[C@H](CS)C(=O)N1CCC[C@H]1C(=O)O")
7.5
>>> reportedresult("Clc1ccccc1CN1CCc2sccc2C1")
7.9
>>> reportedresult("CSc1ccc2c(c1)N(CCC1CCCCN1C)c1ccccc1S2 (configuration not stated)")
8.6
>>> reportedresult("NC(=O)N/N=C/c1ccc([N+](=O)[O-])o1")
10.9
>>> reportedresult("CCc1cc(C(N)=S)ccn1 [ETHIONAMIDE]")
7.7
>>> reportedresult("NC(=O)N1c2ccccc2C=Cc2ccccc21 [CARBAMAZEPINE]")
6.3
>>> reportedresult("CC(=O)Oc1ccccc1C(=O)O")
8
>>> reportedresult("CN(C)CCC=C1c2ccccc2CCc2ccccc21")
9.3
>>> reportedresult("COc1ccc(Cc2nccc3cc(OC)c(OC)cc23)cc1OC")
7.9
>>> reportedresult("Cn1c(=O)c2[nH]cnc2n(C)c1=O.O")
8.4
>>> reportedresult("O=C(O)c1cn(C2CC2)c2cc(N3CCNCC3)c(F)cc2c1=O")
9.9

---

Reported values of AST for individual entries
Organism: Rattus norvegicus
assaySummary: Open TG-GATES - Regimen: Single
Format: toxicity, organism-based, Sprague-Dawley
Set-up: regimen Single, gender Male, age 6 weeks
experimentalConditions: in vivo, po, 0 mg/kg, 24 h, tissue Plasma, route gavage, dose level Control
observationType: AST

>>> reportedresult("COc1ccc(Cc2nccc3cc(OC)c(OC)cc23)cc1OC [PAPAVERINE]")
"72.2 IU/L"
>>> reportedresult("O=C(O)c1cc(/N=N/c2ccc(S(=O)(=O)Nc3ccccn3)cc2)ccc1O [SULFASALAZINE]")
"75.8 IU/L"
>>> reportedresult("CCc1cc(C(N)=S)ccn1 [ETHIONAMIDE]")
"70.6 IU/L"

---

Species on record: Rattus norvegicus
assaySummary: Open TG-GATES - Regimen: Single
Type: toxicity, organism-based, Sprague-Dawley
Design: regimen Single, gender Male, age 6 weeks
experimentalConditions: in vivo, po, 0 mg/kg, 24 h, tissue Blood, route gavage, dose level Control
observationType: MCV (fL)

>>> reportedresult("Clc1ccccc1CN1CCc2sccc2C1")
60.7
>>> reportedresult("COc1ccc(Cc2nccc3cc(OC)c(OC)cc23)cc1OC")
62.6
>>> reportedresult("Cn1c(=O)c2[nH]cnc2n(C)c1=O.O")
61.5
>>> reportedresult("NC(=O)N/N=C/c1ccc([N+](=O)[O-])o1")
67.8
>>> reportedresult("O=C(O)c1cc(/N=N/c2ccc(S(=O)(=O)Nc3ccccn3)cc2)ccc1O")
64.3
>>> reportedresult("CSc1ccc2c(c1)N(CCC1CCCCN1C)c1ccccc1S2 (stereo not given)")
64.9
>>> reportedresult("CC(=O)Oc1ccccc1C(=O)O")
61.7
>>> reportedresult("C[C@H](CS)C(=O)N1CCC[C@H]1C(=O)O")
65.6
>>> reportedresult("NC(=O)N1c2ccccc2C=Cc2ccccc21 [CARBAMAZEPINE]")
63.9
>>> reportedresult("O=C(O)c1cn(C2CC2)c2cc(N3CCNCC3)c(F)cc2c1=O")
65.8

---

Species on record: Rattus norvegicus
assaySummary: Open TG-GATES - Regimen: Single
Type: toxicity, organism-based, Sprague-Dawley
Parameters: regimen Single, gender Male, age 6 weeks
experimentalConditions: in vivo, po, 0 mg/kg, 24 h, tissue Blood, route gavage, dose level Control
observationType: RBC

>>> reportedresult("COc1cc2c(c3oc(=O)c4c(c13)CCC4=O)[C@@H]1C=CO[C@@H]1O2")
"616 x10_4/ul"
>>> reportedresult("NC(=O)N/N=C/c1ccc([N+](=O)[O-])o1")
"592.4 x10_4/ul"
>>> reportedresult("O=C(O)c1cn(C2CC2)c2cc(N3CCNCC3)c(F)cc2c1=O")
"598.2 x10_4/ul"
>>> reportedresult("CC(=O)Oc1ccccc1C(=O)O")
"611.8 x10_4/ul"
>>> reportedresult("CN(C)CCC=C1c2ccccc2CCc2ccccc21")
"589.4 x10_4/ul"
>>> reportedresult("CSc1ccc2c(c1)N(CCC1CCCCN1C)c1ccccc1S2 (stereo not drawn)")
"600.2 x10_4/ul"
>>> reportedresult("Clc1ccccc1CN1CCc2sccc2C1")
"638 x10_4/ul"
>>> reportedresult("NC(=O)N1c2ccccc2C=Cc2ccccc21 [CARBAMAZEPINE]")
"637.2 x10_4/ul"
